- system_tested: GBA2 (Homo sapiens)
- Sequence (Q9HCG7 whole entry): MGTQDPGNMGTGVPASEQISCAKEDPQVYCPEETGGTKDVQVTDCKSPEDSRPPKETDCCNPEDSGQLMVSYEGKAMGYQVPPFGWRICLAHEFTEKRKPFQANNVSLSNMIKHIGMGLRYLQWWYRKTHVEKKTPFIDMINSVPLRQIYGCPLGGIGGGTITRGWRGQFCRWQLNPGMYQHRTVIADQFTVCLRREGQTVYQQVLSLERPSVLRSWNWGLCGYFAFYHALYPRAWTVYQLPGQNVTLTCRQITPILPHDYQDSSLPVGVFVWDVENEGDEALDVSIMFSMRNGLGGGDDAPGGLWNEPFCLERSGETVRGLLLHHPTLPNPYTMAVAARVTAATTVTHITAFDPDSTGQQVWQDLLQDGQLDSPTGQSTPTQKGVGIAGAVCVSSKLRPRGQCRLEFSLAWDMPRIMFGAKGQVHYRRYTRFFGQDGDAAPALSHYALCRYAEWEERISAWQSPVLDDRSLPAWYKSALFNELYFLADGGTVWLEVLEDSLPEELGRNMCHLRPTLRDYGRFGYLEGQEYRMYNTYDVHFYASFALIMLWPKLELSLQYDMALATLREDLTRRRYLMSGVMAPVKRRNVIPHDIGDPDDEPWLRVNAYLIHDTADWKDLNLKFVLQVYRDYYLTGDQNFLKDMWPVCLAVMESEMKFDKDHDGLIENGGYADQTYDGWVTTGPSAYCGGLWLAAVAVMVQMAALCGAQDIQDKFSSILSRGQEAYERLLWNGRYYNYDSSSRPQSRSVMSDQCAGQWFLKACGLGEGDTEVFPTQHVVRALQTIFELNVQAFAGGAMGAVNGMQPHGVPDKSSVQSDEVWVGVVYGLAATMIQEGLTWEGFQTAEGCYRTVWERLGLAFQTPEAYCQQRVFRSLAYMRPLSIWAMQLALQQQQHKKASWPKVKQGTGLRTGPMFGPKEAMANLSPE
- protocol: Determination of IC50 values for inhibition of GBA2 in cell lysate
- Assay type: biochemical
- Design: host or cells: HEK293T (lentiviral transduction, puromycin selection); used as cellular homogenate
- Source text: Assay for Determination of IC50 Values for Inhibition of GBA2 in Cell Lysate Stable GBA2-expressing HEK293T cells were generated as follows. […] Cell populations stably expressing human GBA2 were selected using puromycin for several weeks as determined by activity assays and western blot. […]
endpoint_name: IC50

O[C@H]1[C@H](O)[C@@H](O)CN(CCc2ccccc2)[C@@H]1CF [Example 148]	100 to 1000 nM
C[C@@H]1[C@@H](O)[C@H](O)[C@@H](O)CN1CCc1ccc(F)cc1F [Example 41]	100 to 1000 nM
CCCCOc1cc(F)c(CCN2C[C@H](O)[C@@H](O)[C@H](O)[C@@H]2CF)c(F)c1 [Example 160]	100 to 1000 nM
COc1ccccc1CCN1C[C@H](O)[C@@H](O)[C@H](O)[C@H]1C [Example 37]	100 to 1000 nM
C[C@@H]1[C@@H](O)[C@H](O)[C@@H](O)CN1CCc1c(F)ccc(Cl)c1F [Example 49]	< 100 nM
C[C@@H]1[C@@H](O)[C@H](O)[C@@H](O)CN1CCc1ccc2c(c1)OCCO2 [Example 73]	< 100 nM
C[C@@H]1[C@@H](O)[C@H](O)[C@@H](O)CN1CCc1ccc(OC2CCCOC2)cc1 (stereo partly shown) [Example 62]	< 100 nM
